Target: Delta-type opioid receptor (Homo sapiens) (UniProt P41143)
Sequence (P41143 whole entry): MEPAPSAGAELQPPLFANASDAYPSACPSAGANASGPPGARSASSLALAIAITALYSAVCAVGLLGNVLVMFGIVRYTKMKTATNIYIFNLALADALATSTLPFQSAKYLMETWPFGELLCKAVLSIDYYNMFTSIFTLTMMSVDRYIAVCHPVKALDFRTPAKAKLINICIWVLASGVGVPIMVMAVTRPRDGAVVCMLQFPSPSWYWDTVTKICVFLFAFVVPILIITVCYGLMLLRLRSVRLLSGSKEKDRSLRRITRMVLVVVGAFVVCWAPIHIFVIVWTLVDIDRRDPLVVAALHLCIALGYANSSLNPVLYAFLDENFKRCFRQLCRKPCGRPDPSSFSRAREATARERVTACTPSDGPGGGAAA
Experiment: Inhibition of DPDPE stimulated [35S]GTP-gamma-S binding to cloned human delta opioid receptor expressed in CHO cells
Type: functional, cell-based
Please use the following Ke ranges when assigning a class: 1 (below 20 nM), 2 (20 nM to below 40 nM), 3 (40 nM or more)

Example entries begin here.
[
  {
    "compound": "Cc1ccccc1CCN1CC(C)C2(c3cccc(O)c3)CC1C[C@H](NC(=O)CCN1CCc3ccccc3C1)C2 (stereo not given in full)",
    "assigned.category": 2
  },
  {
    "compound": "CC1CN(CCCc2ccccc2)C2C[C@H](NC(=O)CCN3CCCCC3)CC1(c1cccc(O)c1)C2 (stereo not given in full)",
    "assigned.category": 2
  },
  {
    "compound": "CC1CCN(CCC(=O)N[C@H]2CC3CC(c4cccc(O)c4)(C2)C(C)CN3CCCc2ccccc2)CC1 (stereo not given in full)",
    "assigned.category": 3
  },
  {
    "compound": "CC1CN(CCCc2ccccc2)C2C[C@H](NC(=O)CCN3CCc4ccc(O)cc4C3)CC1(c1cccc(O)c1)C2 (stereo not given in full)",
    "assigned.category": 3
  },
  {
    "compound": "CC1CN(CCCc2ccccc2)C2C[C@H](NC(=O)CCN3CCc4cc(O)ccc4C3)CC1(c1cccc(O)c1)C2 (stereo not given in full)",
    "assigned.category": 2
  }
]

query: Class (by measured Ke) for Cc1ccccc1CN1CC(C)C2(c3cccc(O)c3)CC1C[C@H](NC(=O)CCN1CCc3ccccc3C1)C2 (stereo not given in full)
result: 3

query: Class (by measured Ke) for CC1CN(CCCc2ccsc2)C2C[C@H](NC(=O)CCN3CCc4ccccc4C3)CC1(c1cccc(O)c1)C2 (stereo not given in full)
result: 2

query: Class (by measured Ke) for CC1CN(CCCc2cccs2)C2C[C@H](NC(=O)CCN3CCc4ccccc4C3)CC1(c1cccc(O)c1)C2 (stereo not given in full)
result: 1

query: Class (by measured Ke) for CC1CN(CCCc2ccco2)C2C[C@H](NC(=O)CCN3CCc4ccccc4C3)CC1(c1cccc(O)c1)C2 (stereo not given in full)
result: 3

query: Class (by measured Ke) for COc1ccc2c(c1)CN(CCC(=O)N[C@H]1CC3CC(c4cccc(O)c4)(C1)C(C)CN3CCCc1ccccc1)CC2 (stereo not given in full)
result: 2

query: Class (by measured Ke) for CC1CN(CCCc2ccccc2)C2C[C@H](NC(=O)CCN3CCc4c(O)cccc4C3)CC1(c1cccc(O)c1)C2 (stereo not given in full)
result: 2

query: Class (by measured Ke) for CC1CN(CCCc2ccccc2)C2C[C@H](NC(=O)CCN3CCN(C)CC3)CC1(c1cccc(O)c1)C2 (stereo not given in full)
result: 3

query: Class (by measured Ke) for CC1CN(CCCc2ccccc2)C2C[C@H](NC(=O)CCN3CCc4ccccc4C3)CC1(c1cccc(O)c1)C2 (stereo not given in full)
result: 1

All values here come from ChEMBL document CHEMBL1138153.
